Measured MIC values are reported for all entries that follow.
System: Escherichia coli
assayText: Antibacterial activity against Escherichia coli after 24 hr by serial dilution method
Assay type: functional
testReadout: MIC

{"columns": ["molecule", "experimentalResult"],
 "data": [
  ["CC(C)(C)C1CC(=NO)CC(C(C)(C)C)N1 (stereo unspecified)", "256 µg/mL"],
  ["CC1C(=O)CC(C(C)(C)C)NC1C(C)(C)C (stereo unspecified)", "256 µg/mL"],
  ["CCOC(=O)C1C(=O)CC(C(C)(C)C)N(N=O)C1C(C)(C)C (stereo unspecified)", "64 µg/mL"],
  ["CC1C(=O)CC(C(C)(C)C)N(C(C)(C)C)C1C(C)(C)C (stereo unspecified)", "> 512 µg/mL"],
  ["CC(C)(C)C1CC(=O)CC(C(C)(C)C)N1N=O (stereo unspecified)", "> 512 µg/mL"],
  ["CC1C(=O)CC(C(C)(C)C)N(N=O)C1C(C)(C)C (stereo unspecified)", "> 512 µg/mL"]
]}
